Molecular target: T1, 4H170-bN
T1 chain: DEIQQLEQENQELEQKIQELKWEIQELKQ
Test: two-hybrid library CCNG1;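 note: natural log of median RNA to DNA barcode read ratio; higher means stronger binding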
So basically: interaction score at -0.3 or higher? That is yes (1). Lower than -0.3? That is no (0).

> print(dat)
                                     binder  class.name
1  DENQQLEQENQELEQEIQELEWKIQELKQ [4H1158-bN]     yes (1)

Ask | Could you tell me if the measured interaction score of DEIQQLEQENQELEQKIQELKWEIQELKQ [4H170-bN] reaches -0.3 or more?
Reply | yes (1)

Ask | Quick check: does DEIQQLEQEIQELKQKNQELEWKIQELKQ [4H118-bN] have interaction score greater than or equal to -0.3?
Reply | no (0)

Ask | Reported interaction score reaches at least -0.3 for DEIQQLEQEIQELKQKIQELKWKNQELKQ [4H112-bN] ?
Reply | yes (1)

Ask | Item DENQQLEQEIQELEQKNQELKWEIQELEQ [4H1081-bN] with interaction score of -0.3 or above?
Reply | no (0)
